Entries annotated with measured log10 GI50
tested on: HCT-15
Heads up: the numbers are on a log10 scale; they represent GI50 in µM.

MOLECULE: COc1ccc(/C=C/C(=O)c2sc(-n3nc(-c4ccccc4)cc3-c3ccccc3)nc2C)cc1
RESULT NUMBER: 1.88

Here is the next item to consider.
Value sought: log10 GI50, system HCT-15, item `Cc1ccc(/N=C2N=C(Cl)/C(=C\c3ccccc3)N\2)cc1` . Result: 0.46

----------
tested on: UACC-257; assay: NCI tumour cell line growth inhibition, 48 h
Activity calls are given as the source filed them. No stated cut-off is given here; in the data, active = GI50 up to about 1.1 µM and inactive = higher.
Entries annotated with measured GI50

Completed entries (count: 5):
MOLECULE: Cc1cc(Cl)ccc1NC(=O)CC/C(CC(=O)C(C)C)=N\NC(=O)C[n+]1ccccc1
GI50: > 100 µM (inactive)
//
MOLECULE: Cc1c2c3cc(O)ccc3nc-2n(C)c2ccccc12
GI50: 2.69 µM (inactive)
//
MOLECULE: CN(C)CCNC(=O)c1cccc2c1nc(-c1ccccn1)c1ccccc12
GI50: 16.7 µM (inactive)
//
MOLECULE: O=C(c1nc2ccc(Cl)cc2[nH]c1=O)C(O)c1ccco1 (configuration not stated)
GI50: > 100 µM (inactive)
//
MOLECULE: O=[N+]([O-])c1cccc(-c2csc(N/N=C3\NC/C(=C/c4ccc5c(c4)OCO5)S3)n2)c1
GI50: 35.9 µM (inactive)

Lookup result for C=CCNC(=O)NCCCC(NC(C)=O)C(=O)NCc1ccccc1 (configuration not stated) ; measured GI50: > 100 µM (inactive)

Lookup result for C[C@@H]1CCC2[C@@H](C)[C@@H](O[C@H]3O[C@@H]4O[C@@]5(C)CCC6[C@H](C)CCC([C@H]3C)[C@]64OO5)O[C@@H]3O[C@@]4(C)CCC1[C@@]23OO4 (some centres not stated) ; measured GI50: > 25 µM (inactive)
